tested on: A673/TR/shEF; assay: cell viability (LOESS-normalised, relative to median of negative controls) (log2 ratio); higher = more viable cells (less compound effect), active = hit call of the paper (over 3 MAD below the median); conditions: 0.25 µM; library screen: screen2; EWS-FLI1 expression: high (no doxycycline); treatment time: 72 h
Out of some 3,200 compounds screened, about 300 (9.4%) showed activity. What follows is part of a selection rich in actives, with near analogues and random picks from the rest.
API: response.call in true for active, false for inactive

Examples from the recorded data:
Hey, what did the test say about O=C(Nc1cccc(C(=O)Nc2ccc(S(=O)(=O)O)c3cc(S(=O)(=O)O)cc(S(=O)(=O)O)c23)c1)Nc1cccc(C(=O)Nc2ccc(S(=O)(=O)O)c3cc(S(=O)(=O)O)cc(S(=O)(=O)O)c23)c1 ?
false

I'd appreciate the recorded outcome for C[C@H](Cn1cnc2c(N)ncnc21)OCP(=O)(O)O from this test.
false

Continuing:
For CN1CCC[C@@H]1c1cccnc1 , what call appears in the results of this test?
false

What call does the record list for Cc1ccc(C(=O)Nc2ccc(S(=O)(=O)O)c3cc(S(=O)(=O)O)cc(S(=O)(=O)O)c23)cc1NC(=O)c1cccc(NC(=O)Nc2cccc(C(=O)Nc3cc(C(=O)Nc4ccc(S(=O)(=O)O)c5cc(S(=O)(=O)O)cc(S(=O)(=O)O)c45)ccc3C)c2)c1 ?
true
